System: RARb homodimer (NR concentration 270 nM)
ASSAY COMMENT: PBM binding z-score (relative to random genomic background probes); higher = stronger binding; sequences stand for … in GC…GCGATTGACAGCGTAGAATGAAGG
Consider the following sequences and their measured PBM binding z-score readings.

CHAIN: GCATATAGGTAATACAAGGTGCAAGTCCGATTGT
PBM binding z-score: -0.0695

CHAIN: TCTTGCAGATCAGCAGGTTAAGAAAGCTGGCCAA
PBM binding z-score: -0.126

CHAIN: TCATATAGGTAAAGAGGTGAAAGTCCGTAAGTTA
PBM binding z-score: 1.56

CHAIN: ATCTCTAGGTATCCAAGTTCAGTGAATGCCGAAC
PBM binding z-score: 1.46

CHAIN: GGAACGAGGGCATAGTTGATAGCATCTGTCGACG
PBM binding z-score: 0.536

CHAIN: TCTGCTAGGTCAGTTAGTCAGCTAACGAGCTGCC
PBM binding z-score: 1.99

CHAIN: TGAATGAGGTTAAAGATCATGGAACGTGGCGTCG
PBM binding z-score: 0.734

CHAIN: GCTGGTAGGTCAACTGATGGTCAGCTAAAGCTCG
PBM binding z-score: 3.79

CHAIN: GCTATTAGTTGAAAGGGCAACGGAATGATTCTCG
PBM binding z-score: 1.94
